B1: INTS4 (parent)
chain: TIIEPAGESDNPLRFTSGLVVALD

# Variants of: B1
# experiment-summary: protein stability index of a GFP-peptide fusion (GPS, HEK-293T) (PSI 1-6); higher = more stable;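 also: lentivirally expressed fusions sorted by FACS into six bins by GFP to DsRed ratio, PSI derived from sequencing read proportions per bin multiplied by bin number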
# run-conditions: c terminus: a fixed tail appended
Reported protein stability index values for a set of variants
readout-kind: protein stability index

# residue-sequence, test-value
measured = [
    ("TIIEPAGESDNPLRFTFGLVVALD [S17F]", 2.08),
    ("TIIEPAGESDNPLRFNSGLVVALD [T16N]", 3.39),
    ("TIIEPAGESDNPLRFTSGLVVKLD [A22K]", 3.21),
    ("TIIEPPGESDNPLRFTSGLVVALD [A6P]", 2.99),
    ("TIIEPAGESDNPLRFTSPLVVALD [G18P]", 2.59),
    ("TIIEPAGESDNPLRFTMGLVVALD [S17M]", 1.67),
    ("EIIEPAGESDNPLRFTSGLVVALD [T1E]", 2.68),
    ("TIIEPAGESDNILRFTSGLVVALD [P12I]", 2.27),
    ("TIIEKAGESDNPLRFTSGLVVALD [P5K]", 2.79),
    ("TIIEPAGESDTPLRFTSGLVVALD [N11T]", 2.64),
    ("TIIEPAGESDNPLRFTSGMVVALD [L19M]", 2.83),
    ("TIIEPAGESDNPLRFSSGLVVALD [T16S]", 2.88),
    ("TIIEPAGESDNPLRFTSGLGVALD [V20G]", 3.76),
    ("TIIEPLGESDNPLRFTSGLVVALD [A6L]", 2.2),
    ("TIIEPAGESDNPLRRTSGLVVALD [F15R]", 3.92),
    ("TIIEPAGPSDNPLRFTSGLVVALD [E8P]", 2.15),
    ("TIIEPAGESDNPLRFTSGLVVVLD [A22V]", 1.95),
    ("TIIEPAGESDNPLRWTSGLVVALD [F15W]", 2.2),
    ("TIIEPAGESDNPLRFTSGLVVRLD [A22R]", 2.93),
    ("TIIEPAGESDNPLRHTSGLVVALD [F15H]", 4.37),
    ("TIIEPAGESDNPLRFTSGLKVALD [V20K]", 3.75),
    ("TIIEPAGESDNPLPFTSGLVVALD [R14P]", 3.4),
    ("TIIEPAGESDNPRRFTSGLVVALD [L13R]", 3.65),
    ("TSIEPAGESDNPLRFTSGLVVALD [I2S]", 3.48),
    ("TIIEPAGESDNPLRATSGLVVALD [F15A]", 4.29),
    ("TIIEPAGESDNPLRFTSGFVVALD [L19F]", 2.38),
    ("TIIEPADESDNPLRFTSGLVVALD [G7D]", 3.74),
    ("TIIEPANESDNPLRFTSGLVVALD [G7N]", 2.77),
    ("TIIEPAGESDNMLRFTSGLVVALD [P12M]", 2.33),
    ("TIIELAGESDNPLRFTSGLVVALD [P5L]", 2.76),
    ("TIIEPIGESDNPLRFTSGLVVALD [A6I]", 2.73),
    ("TIIEPAGESDNPLRMTSGLVVALD [F15M]", 3.44),
    ("DIIEPAGESDNPLRFTSGLVVALD [T1D]", 3.21),
    ("TIIEPAGESDYPLRFTSGLVVALD [N11Y]", 2.25),
    ("TIIEPAGESDNSLRFTSGLVVALD [P12S]", 3.13),
    ("TIIEPAGESDNPLRFTIGLVVALD [S17I]", 2.27),
    ("TIIEPAGESDNPLDFTSGLVVALD [R14D]", 3.93),
    ("TIIEPAGESYNPLRFTSGLVVALD [D10Y]", 1.89),
    ("TIIEPAGSSDNPLRFTSGLVVALD [E8S]", 3.08),
    ("TIIEPAGESDNPLRFTSGLVVYLD [A22Y]", 2.45),
    ("TIIEPAGESDNHLRFTSGLVVALD [P12H]", 2.61),
    ("TIIEPAGESDNPLRCTSGLVVALD [F15C]", 3.87),
]
